- Tested on: CAF#5 (primary prostate cancer-associated fibroblasts of myCAF-like type)
- PROTOCOL_DESCRIPTION: drug sensitivity score (DSS2, normalised partial AUC of dose-response, 72 h CellTiter-Glo viability) (DSS (dimensionless)); higher = more sensitive (stronger growth inhibition / cytotoxicity); extreme values may be limits of the assay
Provide the reported drug sensitivity score of each item.
Answer with a number only.

Can you share its drug sensitivity score? I mean this compound: O=C(/C=C/c1cccnc1)NCCCCC1CCN(C(=O)c2ccccc2)CC1 [Daporinad] (tested concentration range 0.1-1000 nM) 13.9

Can you share its drug sensitivity score? I mean this compound: C=CC(=O)Nc1cccc(Nc2nc(Nc3ccc(N4CCN(C(C)=O)CC4)cc3OC)ncc2C(F)(F)F)c1 [Rociletinib] (tested concentration range 0.5-5000 nM) 5.2

Can you share its drug sensitivity score? I mean this compound: O=C(O)CC[C@H]1CC[C@@](c2cc(F)ccc2F)(S(=O)(=O)c2ccc(Cl)cc2)CC1 [MK-0752] (tested concentration range 0.1-1000 nM) 0

Can you share its drug sensitivity score? I mean this compound: CO[C@H]1C(=O)[C@]2(C)[C@@H](OC)C[C@H]3OC[C@@]3(OC(C)=O)[C@H]2[C@H](OC(=O)c2ccccc2)[C@]2(O)C[C@H](OC(=O)[C@H](O)[C@@H](NC(=O)OC(C)(C)C)c3ccccc3)C(C)=C1C2(C)C [Cabazitaxel] (tested concentration range 0.1-1000 nM) 15.8

Can you share its drug sensitivity score? I mean this compound: CNC(=O)c1ccccc1Nc1cc(Nc2ccc(N3CCOCC3)cc2OC)ncc1C(F)(F)F [VS-4718] (tested concentration range 1-10000 nM) 13.1

Can you share its drug sensitivity score? I mean this compound: Cc1cc(Nc2cc(N3CCN(C)CC3)nc(Sc3ccc(NC(=O)C4CC4)cc3)n2)n[nH]1 [Tozasertib] (tested concentration range 1-10000 nM) 3.5

Can you share its drug sensitivity score? I mean this compound: CCN(c1cc(-c2ccc(CN3CCOCC3)cc2)cc(C(=O)NCc2c(C)cc(C)[nH]c2=O)c1C)C1CCOCC1 [Tazemetostat] (tested concentration range 1-10000 nM) 0.9

Can you share its drug sensitivity score? I mean this compound: C=C1C[C@@H]2CC[C@@]34C[C@H]5O[C@H]6[C@@H](O3)[C@H]3O[C@H](CC[C@@H]3O[C@H]6[C@H]5O4)CC(=O)C[C@@H]3[C@@H](OC)[C@@H](C[C@H](O)CN)O[C@H]3C[C@H]3O[C@@H](CC[C@@H]1O2)C[C@@H](C)C3=C [Eribulin] (tested concentration range 0.1-1000 nM) 13.7

Can you share its drug sensitivity score? I mean this compound: COc1cccc2c1C(=O)c1c(O)c3c(c(O)c1C2=O)C[C@@](O)(C(=O)CO)C[C@@H]3O[C@H]1C[C@H](N)[C@@H](O)[C@H](C)O1 [Epirubicin] (tested concentration range 0.1-1000 nM) 4.4

Can you share its drug sensitivity score? I mean this compound: CC(C)(O)CNc1nc(Nc2ccnc(C(F)(F)F)c2)nc(-c2cccc(C(F)(F)F)n2)n1 [Enasidenib] (tested concentration range 1-10000 nM) 0

Can you share its drug sensitivity score? I mean this compound: Nc1ccn([C@@H]2O[C@H](CO)[C@@H](O)C2(F)F)c(=O)n1 [Gemcitabine] (tested concentration range 0.1-1000 nM) 5.6

Can you share its drug sensitivity score? I mean this compound: CC1(C)CC[C@]2(NC(=O)C(C)(F)F)CC[C@]3(C)[C@H](C(=O)C=C4[C@@]5(C)C=C(C#N)C(=O)C(C)(C)[C@@H]5CC[C@]43C)[C@@H]2C1 [Omaveloxolone] (tested concentration range 1-10000 nM) 18.5

Can you share its drug sensitivity score? I mean this compound: Nc1nc(Cl)nc2c1ncn2[C@H]1C[C@H](O)[C@@H](CO)O1 [Cladribine] (tested concentration range 0.1-1000 nM) 0.1

Can you share its drug sensitivity score? I mean this compound: C[C@@H](Nc1cc(F)cc(F)c1)c1cc(C(=O)N(C)C)cc2c(=O)cc(N3CCOCC3)oc12 [AZD-8186] (tested concentration range 0.1-1000 nM) 2.8

Can you share its drug sensitivity score? I mean this compound: CC[C@@H]1CN(C(=O)NCC(F)(F)F)C[C@@H]1c1cnc2cnc3[nH]ccc3n12 [Upadacitinib] (tested concentration range 1-10000 nM) 0.8

Can you share its drug sensitivity score? I mean this compound: CC(C)C[C@H](NC(=O)[C@@H](COC(C)(C)C)NC(=O)[C@H](Cc1ccc(O)cc1)NC(=O)[C@H](CO)NC(=O)[C@H](Cc1c[nH]c2ccccc12)NC(=O)[C@H](Cc1cnc[nH]1)NC(=O)[C@@H]1CCC(=O)N1)C(=O)N[C@@H](CCCNC(=N)N)C(=O)N1CCC[C@H]1C(=O)NNC(N)=O [Goserelin] (tested concentration range 1-10000 nM) 0.2

Can you share its drug sensitivity score? I mean this compound: O=c1[nH]c(C2CCCN2)nc2c1oc1ccc(Cl)cc12 (stereo not given) (tested concentration range 1-10000 nM) 0

Can you share its drug sensitivity score? I mean this compound: N.N.[Cl][Pt][Cl] [Cisplatin] (tested concentration range 10-100000 nM) 14.6

Can you share its drug sensitivity score? I mean this compound: COC(=O)N[C@@H](C)CNc1nccc(-c2cn(C(C)C)nc2-c2cc(Cl)cc(NS(C)(=O)=O)c2F)n1 [Encorafenib] (tested concentration range 0.1-1000 nM) 0.7

Can you share its drug sensitivity score? I mean this compound: CCn1c(=O)c(-c2ccc(Cl)cc2Cl)cc2cnc(Nc3ccc(N4CCNCC4)c(F)c3)nc21 [FRAX486] (tested concentration range 0.5-5000 nM) 11.4

###

- Test system: CAF#7 (primary prostate cancer-associated fibroblasts of myCAF-like type)
- PROTOCOL_DESCRIPTION: drug sensitivity score (DSS2, normalised partial AUC of dose-response, 72 h CellTiter-Glo viability) (DSS (dimensionless)); higher = more sensitive (stronger growth inhibition / cytotoxicity); extreme values may be limits of the assay
Group membership follows drug sensitivity score per the scheme bucket A (below 1), bucket B (1 to below 4), bucket C (4 or more)

Hi, small favor: classify CC(C)C[C@H](NC(=O)CNC(=O)c1cc(Cl)ccc1Cl)B(O)O [Ixazomib] (tested concentration range 0.1-1000 nM) by its drug sensitivity score when you get a moment. bucket C

Hi, small favor: classify CN[C@@H](C)C(=O)N[C@H]1CN(C(=O)CC(C)C)CC[C@H]2CC[C@@H](C(=O)NC(c3ccccc3)c3ccccc3)N2C1=O [AT-406] (tested concentration range 1-10000 nM) by its drug sensitivity score when you get a moment. bucket A

Hi, small favor: classify NC1(c2ccc(-c3nc4ccn5c(=O)[nH]nc5c4cc3-c3ccccc3)cc2)CCC1 [MK-2206] (tested concentration range 0.1-1000 nM) by its drug sensitivity score when you get a moment. bucket B

Hi, small favor: classify CCn1c(=O)c(-c2ccc(Cl)cc2Cl)cc2cnc(Nc3ccc(N4CCNCC4)c(F)c3)nc21 [FRAX486] (tested concentration range 0.5-5000 nM) by its drug sensitivity score when you get a moment. bucket C

Hi, small favor: classify COc1ccc(CCc2nc3cc(-c4c(C)noc4C)ccc3n2C[C@H](C)N2CCOCC2)cc1Cl [SGC-CBP30] (tested concentration range 2.5-25000 nM) by its drug sensitivity score when you get a moment. bucket B

Hi, small favor: classify Nc1ncn([C@@H]2O[C@H](CO)[C@@H](O)[C@H]2O)c(=O)n1 [Azacitidine] (tested concentration range 1-10000 nM) by its drug sensitivity score when you get a moment. bucket B

Hi, small favor: classify C#Cc1cccc(Nc2ncnc3cc4c(cc23)OCCOCCOCCO4)c1 [Icotinib] (tested concentration range 1-10000 nM) by its drug sensitivity score when you get a moment. bucket A

Hi, small favor: classify CCS(=O)(=O)Nc1ccc(Oc2ccc(F)cc2F)c(-c2cn(C)c(=O)c3[nH]ccc23)c1 [Mivebresib] (tested concentration range 1-10000 nM) by its drug sensitivity score when you get a moment. bucket C

Hi, small favor: classify COc1cc(N2CCN(C)CC2)ccc1Nc1nccc(-c2cn(C)c3cnccc23)n1 [AZ191] (tested concentration range 1-10000 nM) by its drug sensitivity score when you get a moment. bucket B

Hi, small favor: classify CC[C@@H]1C(=O)OC[C@@H]1Cc1cncn1C [Pilocarpine] (tested concentration range 4-40000 nM) by its drug sensitivity score when you get a moment. bucket A

Hi, small favor: classify COC(=O)N[C@@H](C)CNc1nccc(-c2cn(C(C)C)nc2-c2cc(Cl)cc(NS(C)(=O)=O)c2F)n1 [Encorafenib] (tested concentration range 0.1-1000 nM) by its drug sensitivity score when you get a moment. bucket B

Hi, small favor: classify COc1cc2c(NC3CCN(C(C)C)CC3)nc(N3CCC(F)(F)CC3)nc2cc1OCCCN1CCCC1 [UNC0642] (tested concentration range 1-10000 nM) by its drug sensitivity score when you get a moment. bucket B

Hi, small favor: classify Nc1nc(OCc2cc(Br)cs2)c2[nH]cnc2n1 [Lomeguatrib] (tested concentration range 1-10000 nM) by its drug sensitivity score when you get a moment. bucket A

Hi, small favor: classify C[C@]12CC[C@@H]3c4ccc(O)cc4C[C@@H](CCCCCCCCC[S+]([O-])CCCC(F)(F)C(F)(F)F)[C@H]3[C@@H]1CC[C@@H]2O (stereo partly drawn) [Fulvestrant] (tested concentration range 0.1-1000 nM) by its drug sensitivity score when you get a moment. bucket A

Hi, small favor: classify CO[C@@H]1[C@H](N(C)C(=O)c2ccccc2)C[C@H]2O[C@]1(C)n1c3ccccc3c3c4c(c5c6ccccc6n2c5c31)C(=O)NC4 [Midostaurin] (tested concentration range 1-10000 nM) by its drug sensitivity score when you get a moment. bucket C

Hi, small favor: classify CCN(CC)CCCC(C)Nc1c2ccc(Cl)cc2nc2ccc(OC)cc12 (stereo not drawn) [Mepacrine] (tested concentration range 5-50000 nM) by its drug sensitivity score when you get a moment. bucket C

Hi, small favor: classify Cn1cc(C[C@@H](N)C(=O)O)c2ccccc21 [Indoximod] (tested concentration range 0.5-5000 nM) by its drug sensitivity score when you get a moment. bucket A

Hi, small favor: classify CC(=O)N(O)CCCCCNC(=O)CCC(=O)N(O)CCCCCNC(=O)CCC(=O)N(O)CCCCCN [Deferoxamine] (tested concentration range 1-10000 nM) by its drug sensitivity score when you get a moment. bucket B

Hi, small favor: classify Nc1cccc2c1C(=O)N(C1CCC(=O)NC1=O)C2=O (stereo not drawn) [Pomalidomide] (tested concentration range 1-10000 nM) by its drug sensitivity score when you get a moment. bucket A

Hi, small favor: classify Nc1ccccc1NC(=O)c1ccc(CNC(=O)OCc2cccnc2)cc1 [Entinostat] (tested concentration range 1-10000 nM) by its drug sensitivity score when you get a moment. bucket B

Hi, small favor: classify O=C1c2c(O)ccc(O)c2C(=O)c2c(NCCNCCO)ccc(NCCNCCO)c21 [Mitoxantrone] (tested concentration range 0.1-1000 nM) by its drug sensitivity score when you get a moment. bucket C

Hi, small favor: classify CC(=O)c1cc2c(o1)C(=O)c1ccccc1C2=O [Napabucasin] (tested concentration range 2-20000 nM) by its drug sensitivity score when you get a moment. bucket C
